- Test system: Liver
- assay name: Half life in rat liver microsomes
- Assay type: ADME, microsome
- experimental conditions: microsomes
t1/2 under 10 min gets yes (1), anything at or over 10 min gets no (0).

# compound, label value
data = [
    ("NC(=O)c1cccc(C2C[C@H]3CC[C@H](C2)N3CC(O)Cc2ccccc2)c1 (stereo in doubt; 31b)", "no (0)"),
    ("O=C1c2ccccc2C(=O)N1CCCCN1[C@@H]2CC[C@@H]1CC(c1cccc(O)c1)C2 (relative stereo; 21b)", "no (0)"),
    ("CCCCCCCN1[C@@H]2CC[C@@H]1CC(c1cccc(C(N)=O)c1)C2 (stereo partly drawn)", "yes (1)"),
    ("CCCCCCCN1[C@@H]2CC[C@@H]1CC(c1cccc(C(N)=O)c1)C2 (relative stereo)", "no (0)"),
    ("NC(=O)c1cccc(C2C[C@H]3CC[C@H](C2)N3CCCc2ccccc2)c1 (relative stereo; 24a)", "no (0)"),
    ("NC(=O)c1cccc(C2C[C@H]3CC[C@H](C2)N3Cc2c(F)cccc2F)c1 (relative stereo; 26b)", "no (0)"),
    ("CCCCCCCN1[C@@H]2CC[C@@H]1CC(c1cccc(O)c1)C2 (relative stereo; 17b)", "yes (1)"),
    ("NC(=O)c1cccc(C2C[C@H]3CC[C@H](C2)N3CC(O)Cc2ccccc2)c1 (relative stereo)", "no (0)"),
]
